System: RWP1 cells
Assay: Effect of anti-FZD5 Fabs on proliferation of pancreatic cancer cell lines (percent growth inhibition)
Format: cell-based, human
Conditions: Fab 10 μg/ml
Protocol: The effect of presently disclosed anti-FZD5 Fabs on proliferation of RNF43 loss-of-function mutant pancreatic cancer cell lines HPAFII, PATU8988S and ASPC-1; and on pancreatic cancer cell line RWP1, was tested at […] and 10 μg/ml.
Measurement Kind: percent growth inhibition, RWP1 10 μg/ml (%)
Quick reminder: number only, in %, skip the unit.

Could you share which percent growth inhibition, RWP1 10 μg/ml value was measured for Fab-2934: anti-FZD5 Fab with antibody variable region Fv-2934; CDR SEQ ID NOs: 35, 36, 73, 110, 149, 155 (antibody, V domains shown) VH: EVQLVESGGGLVQPGGSLRLSCAASGFNISYSYMHWVRQAPGKGLEWVASIYSSSGSTSYADSVKGRFTISADTSKNTAYLQMNSLRAEDTAVYYCARGAIDYWGQGTLVTVSS VL: DIQMTQSPSSLSASVGDRVTITCRASQSVSSAVAWYQQKPGKAPKLLIYSASSLYSGVPSRFSGSRSGTDFTLTISSLQPEDFATYYCQQWYHYGLITFGQGTKVEIK ?
0.90
